Cited source for all entries: the nanobody polyreactivity screen of Harvey et al. (2022)

Test: yeast display, Sf9 membrane polyspecificity reagent, FACS + sequencing; frameworks hold sequencing errors
MEASUREMENT KIND: polyreactivity (PSR sort gate)

1. QVQLVESGGGLVQAGGSLRLSCAASGLTFYKNAMGWYRQAPGKEKELVAAISDSGGSTYYADSVKGRFTISRDNAKNTVYLQMNSLKPEDTAVCYCNARRRVYYKGFDYWGQGTQVTVSS : high polyreactivity
2. QVQLVESGGGLVQAGGSLRLSCAASGVIFFSYAMGWYRQAPGKERELVASISRSGGTTYYADSVKGRFTISRDNGKNTVYLQMNSLKPEDTAVYYCAARTYSYYSRDYCGQGTQVTVSS : high polyreactivity
3. QVQLVESGGGLVQAGGSLRLSCAASGRTLYWYAMGWYRQAPGKERELVAAISSGGGSTYYADSVKGRFTISRDNAKNTVYLQMNSLKPEDTAVYYCATDEPWVYGYDYWGQGTQVTVSS : low polyreactivity
4. QLQLEESRGGLVQAGGSLRLSCAASGGTCFSYAMGCYRQAPGKERELVAGIRNGGSTKYADSVKGRFTISRDNAKNTVYLQMNSLNPEDTAVYYCAARYYRPYTSSWAHNYRLDYCGQGTQVTVSS : high polyreactivity
5. QVQLVESGGGLVQAGGSLRLSCAASGSIFQGYAMGWYRQAPGKERELVAAITSSGGSTYYADSVKGRFTISRDNAKNTVYLQMNSLKPEDTAVYYCAARGYSHVASRLYYYWGQGTQVTVSS : high polyreactivity

For every item below, please supply its polyreactivity (PSR sort gate).
1. QVQLVESGGGLVQAGGILRLSCAASGNIFESYGMGWYRQAPGKERELVAANSYSGGTTYYADSVKGRFTFSRDNEKNTVYLQMNSLKPEDTAVYYCAARLHHFFTYDYWGQGTQVTVSS
2. QVQLVESGGGLVQAGGSLRLSCAASGRIFYYYAMGWYRQAPGKERELVAAISASGASTYYADSVKGRFTISRDNAKNTVYLQMNSLKPEDTAVYYCAAEEFYYYSADWYDYWGQGTQVTVSS
3. QVQLVESGGGLVQAGGSLRLICAASGGIFNYYAMGWYREAPGKERELVAAISASGGSTYYADSVKGRFTISRDNAKNTVYLQMNSLKPEDTAVYYCAAGLPYGYGYDYWGQGTQVTVSS
4. QVQLVESGGGLVQEGGSLRLICAASGIIFYFYAMGWYRQAPGKERELVAAISSGGGSTYYADSVKGRFTISRDNAKNTVYLQMNSLKPEDTAVYYCAAKIGRNFDWGQGTQVTVSS
5. QVQLVESGGGLVQAGGSLRLSCAASGSIFDGNAMGWYRQAPGKERELVASISDSGGSTYYADSVKGRFTISRDNAKNTVYLQMNSLKPEDTAVYYCAKVFVRFYDYYINYWGQGTQVTVSS

low polyreactivity
high polyreactivity
low polyreactivity
high polyreactivity
low polyreactivity

For every item below, please supply its polyreactivity (PSR sort gate).
1. QVQLVESGGGLVQAGGSLRLSCAASGFTFQYNAMGWYRQAPGKERELVAAITWTGTSTYADSVKGRFTISRDNAKNTVYLQLNSLKPEDTAVYYCAARYYAPRWFSYDYWGQGTQVTVSS
2. QVQLVESRGGLVQAGGSLRLSCASSGSTFVPNAMGWYRQAPGNERELDAAITFSGGTTYYADSVKGRFTISRDNAKNTVYFQMNSLKPEDTAVYDCAADYFSNLWWSGHAWRYYYWGQGTQVTVSS
3. QVHLVESGGGLVQAGGSLLLSCSASGSIFTFNAMGWYRQAPGKERELVAAISSGGNTYYADSEKGRFTISRDNAKNSVYLQMNSLKPEDTAVYYCAAVRRTDGDGKYYYWGQGTEVTVSS
4. QVQLVESGGGLVQAGGSLRLSCAASGIIFPLYAMGWYRQAPGKERELVADITRGGSTYYADSVKGRFTISRDNAKNTVYLQMNSLKPEDTAVYYGNKQKRWTYSHYFPTTYDYWGQGTQVTVSS
5. QVQLVESGGGLVQAGGSLRLSCAASGSTFSSNTMGWYRQAPGKEREMVAAITRRGGSTYYADSVKGRFTISRDNAKNTVYLQMNCLKPEDTAVYYCAARAYGGYGYWGQGTQVPVSS
6. QVQLVESGGGLVQAGGSLRLSCAASGSISVWYVMGWYRPAPGTERELVAAITRSGGSTFYADSVKGRFTISRDNAKNTVYLQMNSLKPEDTAVYYCAADGGVAWGYGYWGQGTQVTVSS

low polyreactivity
low polyreactivity
high polyreactivity
high polyreactivity
low polyreactivity
low polyreactivity
